Values were extracted from patent US4775671A.

Please respond with reported LD50 for every item in the list.
# procedure.text: Acute toxicity, single oral administration to mice
# particulars: mouse, in vivo
# Text: The results which have been obtained with representative members of the class of compound defined by general formula I in the experiments described previously are compiled in the following Table. Moreover, the Table contains data concerning the acute toxicity of some of these compounds (LD50 in mg/kg in the case of single oral administration to mice).

In the examples that follow, each entry is paired with its recorded LD50.
INSERT INTO assay_data (molecule, reported_value) VALUES
  ('Cc1noc(-c2ncn3c2[C@@H]2CCCN2C(=O)c2c(Br)cccc2-3)n1', '2500 to 5000 mg/kg'),
  ('O=C1c2c(Cl)cccc2-n2cnc(-c3nc(C4CC4)no3)c2[C@@H]2CCCN12', '1250 to 2500 mg/kg'),
  ('Cc1noc(-c2ncn3c2[C@@H]2CCCN2C(=O)c2c-3ccc(F)c2Cl)n1', '1250 to 2500 mg/kg');

Working through the 3 molecules below one at a time, give LD50 for each.
1. Cc1noc(-c2ncn3c2CN(C)C(=O)c2c(Cl)cccc2-3)n1
2. Cc1nnc(-c2ncn3c2[C@@H]2CCCN2C(=O)c2c(Cl)cccc2-3)o1
3. Cc1noc(-c2ncn3c2[C@@H]2CCCN2C(=O)c2c(Cl)cccc2-3)n1

1: 1250 to 2500 mg/kg; 2: 312 to 625 mg/kg; 3: 2000 to 4000 mg/kg
